- Test system: Avena fatua (AVEFA)
- test.description: Example A pre-emergence herbicidal activity, glasshouse pot test
- Format: in vivo
- assay.context: 480 h, rate 500 g/ha, evaluated 20 days after spraying, read-out: Pre-emergence activity AVEFA (100=total damage to plant; 0=no damage to plant)
endpoint.name: pest or weed control at 500 g/ha (%)
The figure you give is taken to be in %; do not add the unit.

Example results:
CCCCC(=O)OC1=C(c2cc(-c3ccc(Cl)cc3)ccc2CC)C(=O)C(C)(C)OC1(C)C [Compound D-2]
60
Cc1ccc(-c2ccc(Cl)cc2)cc1C1=C(O)COCC1=O [Compound A-3]
20

Would you kindly share the measured pest or weed control at 500 g/ha for Cc1ccc(-c2ccc(F)cc2)cc1C1=C(O)C(C)(C)OC(C)(C)C1=O [Compound A-9] ? 30

Would you kindly share the measured pest or weed control at 500 g/ha for COC(=O)OC1=C(c2cc(-c3ccc(Cl)cc3)ccc2C)C(=O)C(C)(C)OC1 [Compound D-5] ? 20

All values here come from patent US8680012B2.
